# Ki listing for each entry below
- study-target: recombinant rat GABAA receptor α1β3γ2 (Rattus norvegicus, UniProt P18508+P62813)
- Sequence (P62813 28-455, one chain of several): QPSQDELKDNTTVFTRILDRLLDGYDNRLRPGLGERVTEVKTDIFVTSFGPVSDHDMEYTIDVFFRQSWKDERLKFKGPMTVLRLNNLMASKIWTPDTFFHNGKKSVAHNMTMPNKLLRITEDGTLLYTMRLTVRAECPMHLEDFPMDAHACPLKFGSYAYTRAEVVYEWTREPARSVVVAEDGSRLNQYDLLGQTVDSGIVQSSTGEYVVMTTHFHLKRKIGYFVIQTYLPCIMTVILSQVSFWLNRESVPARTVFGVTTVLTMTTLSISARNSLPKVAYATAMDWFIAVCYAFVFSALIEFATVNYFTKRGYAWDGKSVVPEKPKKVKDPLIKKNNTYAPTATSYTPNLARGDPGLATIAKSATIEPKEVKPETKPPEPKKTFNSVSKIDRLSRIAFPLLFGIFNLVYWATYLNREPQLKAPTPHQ
- protocol: [3H]flunitrazepam radioligand displacement, α1β3γ2
quantity-name: Ki (nM)

>>> result("C#Cc1ccc2c(c1)C(c1ccccc1)=N[C@@H](C)c1nnc(C)n1-2 [compound 2-S]")
663
>>> result("CCOC(=O)c1ncn2c1[C@@H](C)N=C(c1ccccc1F)c1cc(Br)ccc1-2 [compound 1-R]")
273
>>> result("C[C@@H]1N=C(c2ccccc2)c2cc(Br)ccc2NC1=O [compound 3-S]")
64
>>> result("CCOC(=O)c1ncn2c1[C@H](C)N=C(c1ccccc1F)c1cc(Br)ccc1-2 [compound 1-S]")
190

* * *

Reported Ki by item:
- study-target: recombinant rat GABAA receptor α5β3γ2 (Rattus norvegicus, UniProt P18508+P19969)
- Sequence (P19969 32-464 limits assumed): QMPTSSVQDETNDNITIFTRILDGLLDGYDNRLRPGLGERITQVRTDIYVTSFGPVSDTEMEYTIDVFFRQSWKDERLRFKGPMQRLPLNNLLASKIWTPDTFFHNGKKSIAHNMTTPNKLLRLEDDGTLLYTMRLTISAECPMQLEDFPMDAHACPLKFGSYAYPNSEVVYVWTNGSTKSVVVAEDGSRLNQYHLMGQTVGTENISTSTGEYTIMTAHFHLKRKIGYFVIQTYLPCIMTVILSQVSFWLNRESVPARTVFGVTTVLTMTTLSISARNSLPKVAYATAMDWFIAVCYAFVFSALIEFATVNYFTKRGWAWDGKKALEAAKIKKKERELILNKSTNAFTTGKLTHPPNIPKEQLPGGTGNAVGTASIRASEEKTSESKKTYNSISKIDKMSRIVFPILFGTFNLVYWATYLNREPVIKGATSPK
- Sequence (P63079 26-473 partner): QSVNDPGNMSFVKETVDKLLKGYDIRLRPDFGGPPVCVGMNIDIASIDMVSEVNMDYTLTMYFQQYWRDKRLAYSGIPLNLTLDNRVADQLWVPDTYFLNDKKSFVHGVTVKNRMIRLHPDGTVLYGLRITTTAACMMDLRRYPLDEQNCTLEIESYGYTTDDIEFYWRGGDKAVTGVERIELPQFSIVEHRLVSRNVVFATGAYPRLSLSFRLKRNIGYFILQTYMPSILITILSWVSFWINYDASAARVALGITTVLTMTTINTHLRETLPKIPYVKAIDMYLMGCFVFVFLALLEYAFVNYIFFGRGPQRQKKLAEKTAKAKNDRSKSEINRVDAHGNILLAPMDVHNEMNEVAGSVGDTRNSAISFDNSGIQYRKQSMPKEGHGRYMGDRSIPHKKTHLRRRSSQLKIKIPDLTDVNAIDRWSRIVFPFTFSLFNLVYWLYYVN
- Sequence (P18508 39-466): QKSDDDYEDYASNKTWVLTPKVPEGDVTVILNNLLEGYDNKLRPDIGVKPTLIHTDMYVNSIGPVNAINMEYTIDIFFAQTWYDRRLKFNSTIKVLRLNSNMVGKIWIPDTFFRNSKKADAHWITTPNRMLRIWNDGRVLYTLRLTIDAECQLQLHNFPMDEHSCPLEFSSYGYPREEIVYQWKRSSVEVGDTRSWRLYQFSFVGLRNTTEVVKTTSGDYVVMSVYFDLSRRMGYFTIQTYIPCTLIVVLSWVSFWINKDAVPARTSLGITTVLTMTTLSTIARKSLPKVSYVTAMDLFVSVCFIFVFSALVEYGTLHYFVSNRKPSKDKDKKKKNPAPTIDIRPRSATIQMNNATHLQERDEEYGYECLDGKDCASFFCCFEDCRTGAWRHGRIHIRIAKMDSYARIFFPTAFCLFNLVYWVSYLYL
- protocol: [3H]flunitrazepam radioligand displacement, α5β3γ2
quantity-name: Ki (nM)

>>> result("C[C@@H]1N=C(c2ccccc2)c2cc(Br)ccc2NC1=O")
31
>>> result("CCOC(=O)c1ncn2c1[C@H](C)N=C(c1ccccc1F)c1cc(Br)ccc1-2")
17
>>> result("CCOC(=O)c1ncn2c1[C@@H](C)N=C(c1ccccc1F)c1cc(Br)ccc1-2")
56
>>> result("C#Cc1ccc2c(c1)C(c1ccccc1)=N[C@@H](C)c1nnc(C)n1-2")
80

* * *

- study-target: recombinant rat GABAA receptor α2β3γ2 (Rattus norvegicus, UniProt P18508+P23576)
- Sequence (P23576 29-451, one chain of several): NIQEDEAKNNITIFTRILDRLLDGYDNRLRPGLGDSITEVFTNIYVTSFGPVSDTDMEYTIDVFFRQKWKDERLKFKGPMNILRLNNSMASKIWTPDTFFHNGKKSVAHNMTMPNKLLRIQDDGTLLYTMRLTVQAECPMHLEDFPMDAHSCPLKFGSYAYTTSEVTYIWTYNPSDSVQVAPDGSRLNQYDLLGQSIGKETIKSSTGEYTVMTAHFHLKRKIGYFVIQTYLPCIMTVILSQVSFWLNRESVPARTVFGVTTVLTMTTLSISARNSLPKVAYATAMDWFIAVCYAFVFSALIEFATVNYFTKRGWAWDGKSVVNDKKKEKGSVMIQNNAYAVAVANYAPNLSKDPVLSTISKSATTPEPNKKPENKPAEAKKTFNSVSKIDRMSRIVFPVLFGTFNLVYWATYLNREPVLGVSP
- protocol: [3H]flunitrazepam radioligand displacement, α2β3γ2
pKi: −log10 of the molar value.
pKi reference
quantity-name: pKi

>>> result("C[C@@H]1N=C(c2ccccc2)c2cc(Br)ccc2NC1=O [compound 3-S]")
7.21
>>> result("C#Cc1ccc2c(c1)C(c1ccccc1)=N[C@@H](C)c1nnc(C)n1-2 [compound 2-S]")
6.79
>>> result("CCOC(=O)c1ncn2c1[C@@H](C)N=C(c1ccccc1F)c1cc(Br)ccc1-2 [compound 1-R]")
6.60
>>> result("CCOC(=O)c1ncn2c1[C@H](C)N=C(c1ccccc1F)c1cc(Br)ccc1-2 [compound 1-S]")
7.17

* * *

- Test system: recombinant rat αxβ3γ2 receptors (x = 1, 2, 3, or 5)
- protocol: [3H]flunitrazepam radioligand displacement, all receptor subtypes tested
- Format: binding
- cond: α1β3γ2, α2β3γ2, α3β3γ2, α5β3γ2; even at high micromolar concentrations for non-binders
quantity-name: displacement of [3H]flunitrazepam in all receptor subtypes (in words)

>>> result("C#Cc1ccc2c(c1)C(c1ccccc1)=N[C@H](C)c1nnc(C)n1-2")
"failed to displace"
>>> result("C[C@H]1N=C(c2ccccc2)c2cc(Br)ccc2NC1=O")
"failed to displace"
>>> result("C[C@@H]1N=C(c2ccccc2)c2cc(Br)ccc2NC1=O")
"potently replaced"
>>> result("C#Cc1ccc2c(c1)C(c1ccccc1)=N[C@@H](C)c1nnc(C)n1-2")
"potently replaced"
>>> result("CCOC(=O)c1ncn2c1[C@H](C)N=C(c1ccccc1F)c1cc(Br)ccc1-2")
"potently replaced"
>>> result("CCOC(=O)c1ncn2c1[C@@H](C)N=C(c1ccccc1F)c1cc(Br)ccc1-2")
"potently replaced"
